Biological target: human TRPM8 (Homo sapiens, UniProt Q7Z2W7)
Sequence (Q7Z2W7 whole entry): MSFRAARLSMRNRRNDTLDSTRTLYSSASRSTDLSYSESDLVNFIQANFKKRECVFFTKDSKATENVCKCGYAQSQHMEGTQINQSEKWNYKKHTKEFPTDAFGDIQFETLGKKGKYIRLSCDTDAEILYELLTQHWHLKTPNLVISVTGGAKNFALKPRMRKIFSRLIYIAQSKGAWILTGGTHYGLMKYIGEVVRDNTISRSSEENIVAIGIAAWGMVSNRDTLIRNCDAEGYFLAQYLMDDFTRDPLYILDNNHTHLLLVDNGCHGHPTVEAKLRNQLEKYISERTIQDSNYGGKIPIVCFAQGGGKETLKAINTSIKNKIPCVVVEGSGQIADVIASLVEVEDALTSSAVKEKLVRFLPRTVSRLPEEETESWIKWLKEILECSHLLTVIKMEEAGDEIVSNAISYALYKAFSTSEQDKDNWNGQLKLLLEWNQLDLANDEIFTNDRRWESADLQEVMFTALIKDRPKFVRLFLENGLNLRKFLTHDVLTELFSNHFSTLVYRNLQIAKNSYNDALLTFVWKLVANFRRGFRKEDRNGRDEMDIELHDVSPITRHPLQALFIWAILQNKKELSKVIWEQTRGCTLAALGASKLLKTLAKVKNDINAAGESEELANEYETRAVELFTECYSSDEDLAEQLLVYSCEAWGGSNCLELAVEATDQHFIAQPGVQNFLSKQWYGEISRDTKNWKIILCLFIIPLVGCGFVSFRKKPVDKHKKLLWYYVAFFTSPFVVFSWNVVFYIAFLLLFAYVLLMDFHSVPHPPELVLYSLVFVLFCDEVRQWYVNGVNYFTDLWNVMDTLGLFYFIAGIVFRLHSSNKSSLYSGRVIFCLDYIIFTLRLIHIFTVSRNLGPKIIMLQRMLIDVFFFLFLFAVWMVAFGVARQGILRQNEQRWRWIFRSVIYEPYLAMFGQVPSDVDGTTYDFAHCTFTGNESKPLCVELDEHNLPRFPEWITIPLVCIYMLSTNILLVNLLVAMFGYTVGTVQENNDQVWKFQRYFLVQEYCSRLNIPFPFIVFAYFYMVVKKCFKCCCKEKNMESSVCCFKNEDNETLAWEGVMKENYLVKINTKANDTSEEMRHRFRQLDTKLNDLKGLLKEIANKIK
Test: In Vitro human TRPM8 Functional Assay (intracellular Ca2+, Fluo4, FDSS, menthol activation)
Settings: HEK293 cells stably expressing human TRPM8; activation with L-(-)-Menthol; 11-point dose-response
pIC50: −log10 of the molar value.
RECORDED METRIC: pIC50

Worked examples, 3 compounds total:
COc1cccc(C(C)N(c2cccc(OC)c2)S(=O)(=O)c2ccc(C)c(Cl)c2)c1 (stereo not shown)
5.00 to 6.00
COc1ccc(N(C(C)c2ccccc2OC)S(=O)(=O)c2ccccc2F)cc1OC (stereo not shown)
5.00 to 6.00
O=C(O)c1ccc(S(=O)(=O)N(Cc2ccccc2)c2cccc(C(F)(F)F)n2)cc1
5.00 to 6.00

Now let's try a different one.
// pIC50 lookup, compound = `COc1cc(C(=O)O)ccc1S(=O)(=O)N(Cc1ccccc1)c1ncc(C(F)(F)F)cc1Cl` , result: > 6.00

---

Biological target: human TRPM8 (Homo sapiens, UniProt Q7Z2W7)
Assay: In Vitro human TRPM8 Functional Assay (intracellular Ca2+, Fluo4, FDSS, menthol activation)
Details: HEK293 cells stably expressing human TRPM8; activation with L-(-)-Menthol; 11-point dose-response
pIC50: −log10 of the molar value.
RECORDED METRIC: pIC50

O=C(O)c1ccc(S(=O)(=O)N(Cc2ccccc2)c2ncccc2Cl)cc1
5.00 to 6.00
COc1cccc(C(C)N(c2cccc(Cl)c2)S(=O)(=O)c2ccc(F)cc2C)c1 (centres unmarked)
5.00 to 6.00
COc1ccc(OC)c(C(C)N(c2ccc(F)cc2)S(=O)(=O)c2ccc(F)cc2C)c1 (centres unmarked)
5.00 to 6.00

# lookup: `Cc1cc(Cl)cnc1N(Cc1ccc(F)c(C(F)(F)F)c1)S(=O)(=O)c1ccc(C(=O)O)cc1` on human TRPM8 (Homo sapiens, UniProt Q7Z2W7), pIC50 = > 6.00

# lookup: `O=C(CN(c1cccc(C(F)(F)F)c1)S(=O)(=O)c1ccccc1)Nc1ccccc1` on human TRPM8 (Homo sapiens, UniProt Q7Z2W7), pIC50 = 5.00 to 6.00

---

Parameter IC50: see the listing below.
Molecular target: human TRPM8 (Homo sapiens, UniProt Q7Z2W7)
Construct: expressed in transfected cells
Assay: In Vitro human TRPM8 Functional Assay (intracellular Ca2+, Fluo4, FDSS, menthol activation)
Type: cell-based
Details: HEK293 cells stably expressing human TRPM8; activation with L-(-)-Menthol; 11-point dose-response

Worked examples, 7 compounds total:
CN(C)S(=O)(=O)Nc1ccc(S(=O)(=O)N(Cc2ccccc2)c2ncc(C(F)(F)F)cc2Cl)cc1 [Example 194]
< 1000 nM
COc1cccc(N(C(C)c2ccccc2C)S(=O)(=O)c2ccc(C)c(Cl)c2)c1 (centres unmarked) [Example 95]
10000 to 30000 nM
COc1ccc(N(C(C)c2ccc(Cl)cc2)S(=O)(=O)c2ccccc2)cc1 (centres unmarked) [Example 87]
1000 to 10000 nM
O=C(O)c1cc(S(=O)(=O)N(Cc2ccccc2)c2ccc(Cl)cc2)ccc1Cl [Example 122]
1000 to 10000 nM
O=C(O)c1ccc(S(=O)(=O)N(CCc2ccccc2)c2ncc(C(F)(F)F)cc2Cl)cc1 [Example 148]
< 1000 nM
Cc1ccc(S(=O)(=O)N(Cc2ccccc2)c2ccccn2)cc1[N+](=O)[O-] [Example 133]
1000 to 10000 nM
O=C(O)c1ccc(S(=O)(=O)N(Cc2ccc(C3CC3)cc2)c2ncc(C(F)(F)F)cc2Cl)cc1 [Example 150]
< 1000 nM

// IC50 lookup, compound = CN1CCN(C(=O)CN(c2cccc(C(F)(F)F)c2)S(=O)(=O)c2ccccc2)CC1 [Example 5] , result: < 1000 nM
